tested on: SK-OV-3 ovarian; test: NCI tumour cell line growth inhibition, 48 h; in the data active means GI50 below about 0.43 µM; inactive means the rest
Reply using exactly one outcome from t = active, f = inactive

INSERT INTO results (compound, label) VALUES
  ('O=Nc1ccc(O)c2ccccc12', 'f'),
  ('C/C1=C/C(=O)O[C@@H]2C[C@@H](CC[C@H](C)/C=C\C=C\CC1)O[C@@](O)([C@@H]1CSC(=O)N1CO)C2', 't'),
  ('C[C@@H](N)C1CCC(C(=O)Nc2ccncc2)CC1 (stereo not given in full)', 'f'),
  ('CN(C)CCCNC(=O)c1ccc2oc3cc4ccccc4c(=O)n3c2c1', 'f');

## Task Identify the outcome logged in this assay for the compound shown: CCN1C(=O)N(CC)C2C1NN=c1s/c(=C\c3ccccc3F)c(=O)n12 (stereo not given)
## Result t

###

Property: GI50; scope: individual compounds
test system: UACC-257 melanoma; assay: NCI tumour cell line growth inhibition, 48 h

INSERT INTO results (structure_string, parameter, result) VALUES
  ('CNC(=O)c1c(NC(=O)c2ccc(C(F)(F)F)cc2)sc2c1CCC(=O)C2', 'GI50', '1.73 µM'),
  ('CCOC(CCCNCCCn1c2c(c3cc(OC)c(OC)cc3c1=O)C(=O)c1cc3c(cc1-2)OCO3)OCC', 'GI50', '7.21 µM'),
  ('COc1ccccc1-c1cc(/C=C2\C(=O)Nc3ncc(Br)cc32)cc(Br)c1O', 'GI50', '16.4 µM');

## Task Consider the compound NC(=NCCCC1(c2ccccc2)CCCC1)Nc1ccc(Cl)cc1 and give its measured GI50.
## Result 1.82 µM

###

We begin with a simple list: items and their reported TGI.
test system: SK-MEL-2 melanoma; assay: NCI tumour cell line growth inhibition, 48 h
Where a SMILES comes first, the peptide text is derived from it. [ ]: non-standard residue; d: D form. The star is where a group is joined. Phe(4-NO2) = N[CH](Cc1ccc([N+](=O)[O-])cc1)C(=O)O; Cbz = O=C(OCc1ccccc1)*

INSERT INTO results (molecule, parameter, result) VALUES
  ('Cc1cc(C(=O)Nc2nc3cccc(Cl)c3n2[C@@H]2CCCCN(C(=O)/C=C/CN(C)C)C2)ccn1', 'TGI', '34.2 µM');

## Task Form field: reported TGI of CCOC(=O)CCC(NC(=O)OCc1ccccc1)C(=O)NC(CCC(=O)OCC)C(=O)NC(Cc1ccc([N+](=O)[O-])cc1)C(=O)NC(CCC(=O)OCC)C(=O)NC(CCC(=O)OCC)C(=O)OCC (stereo not drawn) (Cbz-E(OEt)E(OEt)[Phe(4-NO2)]E(OEt)E(OEt)-OEt; configuration not given here)
## Result > 100 µM

## Task I'd like to know its TGI. The molecule in question is COc1cccc(Cn2c(-c3nonc3N)nc3ccccc32)c1
## Result 15.4 µM

## Task Could you tell me which TGI is on file for COc1ccc(/C=N/n2c(=O)[nH]c3ccccc3c2=O)cc1 ?
## Result > 100 µM

## Task Given Cc1ccc(/C=N/Nc2nc3ccccc3s2)s1 , state its recorded TGI.
## Result > 100 µM

## Task For the molecule shown here, C[C@H]1C(=O)O[C@@H]1[C@H]1COC(C)(C)O1 , give the reported TGI.
## Result > 100 µM

## Task Requested read-out: TGI. Entry: CC1(C)O[C@H]([C@H](O)c2nnc3ccc(Cl)nn23)[C@@H]([C@H]2COC(C)(C)O2)O1
## Result > 100 µM

## Task Returns the measured TGI for the input molecule. Input: CC1CN(c2ccc(Cl)cc2)CC(C)(C)OC(=O)O1 (stereo not drawn)
## Result > 100 µM

###

tested on: BT-549 breast; assay: NCI tumour cell line growth inhibition, 48 h
Parameter: TGI (µM)
Unit µM implied. Number only.

See these solved cases before continuing.
INSERT INTO results (molecule, target_under_test, parameter, unit_symbol, recorded_number) VALUES
  ('CC1C(=NO)C(C)C(c2ccccc2)N(N=O)C1c1ccccc1 (stereo unspecified)', 'BT-549 breast', 'TGI', 'µM', 89.8),
  ('O=C1C=CC(=O)c2c1cc([N+](=O)[O-])c1ccoc21', 'BT-549 breast', 'TGI', 'µM', 30.8),
  ('COc1ccc(CCN2CCCN3C2=Nc2ccccc2S3(=O)=O)cc1', 'BT-549 breast', 'TGI', 'µM', 92.4),
  ('Cc1cc(N)ccc1N=Nc1ccc(S(=O)(=O)CCOS(=O)(=O)O)cc1', 'BT-549 breast', 'TGI', 'µM', 14.6);

Next molecule, TGI to be filled in.
## Task What value of TGI has been recorded for this entry: COC(=O)[C@@]1(Cc2ccccc2)[C@H]2c3cc(C(=O)N4CCCC4)n(Cc4ccc(OC)c(OC)c4)c3C[C@H]2CN1C(=O)c1ccccc1
## Result 16.1

###

system: SK-OV-3 ovarian; experiment: NCI tumour cell line growth inhibition, 48 h; in the data active = GI50 below about 0.43 µM; inactive = the rest
Outcomes you can answer with include only these: t for active, f for inactive

Sample answers from the record:
INSERT INTO measurements (structure_string, label) VALUES
  ('Cc1cc(C(=O)Nc2nc3cccc(Cl)c3n2[C@@H]2CCCCN(C(=O)/C=C/CN(C)C)C2)ccn1', 't'),
  ('COc1cc(-c2nc(NC(C)=O)sc2-c2ccnc(NCCNS(=O)(=O)c3ccccc3)n2)ccc1Cl', 'f'),
  ('O=C(CCCCCCCn1cc(-c2cccnc2)nn1)Nc1ccccc1-c1ccccc1', 'f'),
  ('COc1cccc(Cn2c(-c3nonc3N)nc3ccccc32)c1', 't'),
  ('COc1cc2c(F)nccc2cc1C(=O)N[C@@H](c1ccc(F)c(Cl)c1)[C@@H]1C[C@@H](O)CN1', 't');

## Task Identify the outcome logged in this assay for the compound shown: CCOC(=O)C(Cc1c[nH]c2ccc([N+](=O)[O-])cc12)(NC(C)=O)C(=O)OCC
## Result f

###

system: HCT-15 colon; assay: NCI tumour cell line growth inhibition, 48 h
Overview of recorded TGI for various molecules

Sample answers from the record:
INSERT INTO measurements (molecule, parameter, result) VALUES
  ('N=C(N)/N=C(\N)c1c(-c2cc(O)ccc2O)nc2sccn12', 'TGI', '74.8 µM'),
  ('CN(C)CCCNC(=O)c1ccc2oc3cc4ccccc4c(=O)n3c2c1', 'TGI', '> 50 µM'),
  ('Cc1[nH]n(C2=NCCN2)c(=O)c1C', 'TGI', '> 100 µM'),
  ('COc1ccc2c(c1)CCN=C2Cc1ccccc1CCCl', 'TGI', '> 100 µM'),
  ('CCN1C(=S)n2cccc2C1CC(=O)c1ccc(Cl)cc1 (stereo unspecified)', 'TGI', '> 100 µM');

## Task Return reported TGI; argument: Sc1ccc2ccccc2c1CNCc1ccccc1
## Result 88.6 µM

###

The reader will find reported TGI values listed item by item below.
tested on: SN12C renal; assay: NCI tumour cell line growth inhibition, 48 h

INSERT INTO assay_data (compound, target_under_test, result) VALUES
  ('NC(=O)/C(=C\c1ccncc1)c1cccc2ccccc12', 'SN12C renal', '> 100 µM');

## Task GET /values?readout=TGI&item= COc1ccc(/C=C/C(=O)C(C)(C)CN2CCCCC2)cc1
## Result 44.1 µM

## Task // TGI lookup, key: COc1cc(Br)c(CC2(C#N)c3ccccc3C3C(N2C(=O)c2ccccc2)C3(Cl)Cl)cc1OC (stereo not drawn)
## Result > 65.5 µM

## Task Endpoint output: TGI of CN(C)CCCNC(=O)c1ccc2oc3cc4ccccc4c(=O)n3c2c1 . Value?
## Result > 50 µM

## Task Entry Cc1ccc2[nH]c3c(C)c4c(c(C)c3c2c1)CN(C)C=C4 : reported TGI = ?
## Result 0.682 µM

## Task Any idea what its TGI is? The compound is C[N+](C)(C)CC(=O)N/N=C(\CCC(=O)NCCc1ccccc1)CC(=O)c1ccccc1
## Result > 100 µM

## Task // lookup TGI for O=C1OC(c2ccccc2)=N/C1=C\c1ccc2ccccc2c1
## Result > 100 µM

## Task Using the record for CC1=C(C)CC(C#N)(C#N)C(C#N)(C#N)C1 , report its TGI.
## Result > 10 µM

## Task Requested read-out: TGI. Entry: CCOC(=O)N1CC2(C)C=CC1C(C(=O)OC)C2 (stereo not drawn)
## Result > 100 µM

## Task What value of TGI has been reported for the following compound? CCN(CC)CC.CCOc1ccc(NC(=O)N=C=[N-])cc1.[CH-]1CCCCC1.[CH-]1CCCCC1.[CH-]1CCCCC1.[Cl-].[Sn+4]
## Result 0.0634 µM

###

system: OVCAR-8 ovarian; assay: NCI tumour cell line growth inhibition, 48 h; in the data active = GI50 below about 0.43 µM; inactive = the rest
Can you answer with just one of these options? True = active, False = inactive

INSERT INTO results (molecule, label) VALUES
  ('Cc1ncc(C(=O)Nc2ccc(CN3CCN(C)CC3)c(C(F)(F)F)c2)cc1C#Cc1cnc(N)c2cnccc12', 'True'),
  ('COc1ccc(-c2nsc3c2NC(=O)CC3c2ccc(F)cc2)cc1 (centres undefined)', 'False'),
  ('COC(=O)[C@H]1[C@@H](O)[C@@]2(O)c3c(OC)cc(O[C@@H]4O[C@@H]([C@H](O)CO)CO[C@H]4OC)cc3O[C@@]2(c2ccc(OC)cc2)[C@@H]1c1ccccc1', 'True');

## Task Identify the outcome logged in this assay for the molecule shown: COC(=O)[C@H]1C(=O)[C@@]2(C)[C@H]([C@H](OC(=O)c3ccccc3)[C@]3(O)C[C@H](OC(=O)[C@H](O)[C@@H](NC(=O)c4ccc(F)cc4)c4ccccc4)C(C)=C1C3(C)C)[C@]1(OC(C)=O)CO[C@@H]1C[C@@H]2O
## Result True
